Test system: SF-268 CNS
assay_comment: NCI-60 one-dose screen, 48 h (100 = growth as untreated, 0 = no growth, -100 = all killed)
experimental_parameters: 10 µM unless noted
Compounds without any hit were thinned out: in the full panel of roughly 83,000, 20% have a hit.
Below: a set of entries, each annotated with reported growth.

compound	tested_on	unit_info	growth
CC(=O)Nc1ccc2c(c1)/C(=C\C=C/c1ccc([N+](C)(C)C)cc1)c1ccccc1-2	SF-268 CNS	%	48.6
COc1cc(/C=C/C(=O)c2ccc(NC(=O)CN3CCN(c4cc5c(cc4F)c(=O)c(C(=O)O)cn5C4CC4)CC3)cc2)cc(OC)c1OC	SF-268 CNS	%	-1.11
CCC(c1ccc(OC)cc1)C(CC)c1ccc(OCC[N+](C)(C)C)cc1 (centres undefined)	SF-268 CNS	%	40.8
CCCCCCCCCCCCCCCCCCOc1cccc(CCOP(=O)(O)OCC[N+](C)(C)C)c1	SF-268 CNS	%	68
Cc1cccc(-n2c(C)nc3ccc(NC(=O)NCCCl)cc3c2=O)c1	SF-268 CNS	%	95.1
COC12CC(=O)C(C(C)=O)=C(O)C1(C)c1c(O)c(C)c(O)c(C(C)=O)c1O2 (centres undefined)	SF-268 CNS	%	78.4
COc1ccc(/C(=N/O)c2cc(F)c(F)c(OC)c2F)cc1O	SF-268 CNS	%	48.1
CCSc1nnc(NC(=O)Cc2ccc(Cl)cc2)s1	SF-268 CNS	%	110
COc1ccccc1OCC(=O)Nc1sc2c(c1C(N)=O)CCC2	SF-268 CNS	%	43.7
CCNC(=O)C1CCCN1C(=O)C(CCCN=C(N)N)NC(=O)C(CC(C)C)NC(=O)C(CC(C)C)NC(=O)C(Cc1ccc(O)cc1)NC(=O)C(CO)NC(=O)C(Cc1c[nH]c2ccccc12)NC(=O)C(Cc1cnc[nH]1)NC(=O)C1CCC(=O)N1 (centres undefined)	SF-268 CNS	%	100
O=c1oc2cc(OS(=O)(=O)c3ccccc3)c(Cl)cc2c2c1CCCCCC2	SF-268 CNS	%	100
CC(=O)Oc1cccc(OC(C)=O)c1OC(C)=O	SF-268 CNS	%	105
COc1ccc(-c2nc3sccn3c2-c2ccnc(NCCCNS(=O)(=O)c3ccc(C)cc3)n2)cc1	SF-268 CNS	%	38.1
CC(C)CCN(CCCNc1c2c(nc3ccccc13)CCCC2)CCC(C)C	SF-268 CNS	%	89.4
Cc1ccc(S(=O)(=O)OCC(=O)Nc2ccc(C(=O)O)c(O)c2)cc1	SF-268 CNS	%	97
CCN1C(=O)/C(=c2\sc3n(c2=O)C2C(NN=3)N(CC)C(=S)N2CC)c2ccccc21 (centres undefined)	SF-268 CNS	%	90.2
CCCCCCCCCCCCOB(OCCCCCCCCCCCC)OCCCCCCCCCCCC	SF-268 CNS	%	97.2
CCOC(=O)[C@H](CSSc1ncnc2cc[nH]c12)NC(=O)[C@@H](C)c1ccc2cc(OC)ccc2c1	SF-268 CNS	%	33.1
CCC(=O)Nc1ccccc1C#C/C=C\C#Cc1ccccc1SC	SF-268 CNS	%	63.9

###

System: NCI-H226 lung
assay_comment: NCI-60 one-dose screen, 48 h (100 = growth as untreated, 0 = no growth, -100 = all killed)
experimental_parameters: 10 µM unless noted
Compounds without any hit were thinned out: in the full panel of roughly 83,000, 20% have a hit.
Below: a set of entries, each annotated with reported growth.
recorded_metric: growth (%)

>>> print(df.to_string())
                           molecular_string      tested_on  unit_info  numeric_result
0  CC(=O)Nc1ccc2c(c1)/C(=C\C=C/c1ccc([N+](C)(C)C)cc1)c1ccccc1-2  NCI-H226 lung          %            57.9
1                CC(=O)OC[Si](C)(C)c1ccccc1  NCI-H226 lung          %            95.9
2  O=C(/C=C/CN1CCCCC1)Nc1cc2c(Nc3ccc(F)c(Cl)c3F)ncnc2cc1OCCOC(F)F  NCI-H226 lung          %            28.6
3  COc1cc(-c2nc(-c3nc4ccccc4[nH]3)cc3c2[nH]c2ccccc23)cc(OC)c1OC  NCI-H226 lung          %            72.6
4  COc1ccc(OC)c(-c2ccc(-c3ccccc3N)c3[nH]c4ccccc4c23)c1  NCI-H226 lung          %            75.2
5  Cc1ccc(S(=O)(=O)N2CCC(C(=O)Nc3ccc(F)cc3F)CC2)cc1  NCI-H226 lung          %            87.9
6                       Nc1nc(-c2ccccc2)cs1  NCI-H226 lung          %            93.3
7          Nc1ccc(S(=O)(=O)c2ccc(Cl)cc2)cc1  NCI-H226 lung          %              98
8  C=C1C(=O)O[C@H]2[C@H](O)[C@@H](C)CCC/C(C)=C/CC[C@@]3(C)O[C@@H]3C[C@@H]12  NCI-H226 lung          %            80.9
9  CCn1cc(C(=O)O)c(=O)c2cc(F)c(N3CCN(S(=O)(=O)c4c(C)cc(C)cc4C)CC3)cc21  NCI-H226 lung          %            87.4

###

Tested on: K-562 leukemia
assay_comment: NCI-60 one-dose screen, 48 h
experimental_parameters: 10 µM unless noted
About 83,000 compounds went through this panel and 20% of them were active in at least one assay; those are over-represented in the sample as a whole. Calls of active or inactive are those of the source. How the source made its calls: active means growth percent below 10; inactive means the rest.
Labels: 1 (yes) for active, 0 (no) for inactive

compound	category
Oc1ccc(N=Cc2ccccc2)cc1	0 (no)
COc1ccc(-c2nc(-c3ccccc3)c(-c3ccccc3)n2C2CC2)cc1OC1CCCCC1	0 (no)
Nc1c(C(=O)Nc2ccccc2)sc2nc3c(cc12)CCCCC3	0 (no)
CCOC(=O)c1cc(/C(=N\O)c2cc(OC)c(OC)c(OC)c2)n2c(C)cccc12	0 (no)
CN(C)c1ccc(-c2ccc(-c3ccc(C(=N)N)cn3)o2)cc1	1 (yes)
O=C(C[N+](=O)[O-])c1ccc(Cl)cc1	0 (no)
COc1cc(-c2csc(NC(=O)c3cc(C(F)(F)F)cc(C(F)(F)F)c3)n2)cc(OC)c1OC	0 (no)
COc1cc(/C=C2\CCCC3=C2N=C2SC(C)=NN2C3c2cc(OC)c(OC)c(OC)c2)cc(OC)c1OC (configuration not stated)	1 (yes)
COC(=O)CC/C(C)=N\Nc1ccc([N+](=O)[O-])cc1	1 (yes)
COc1ccc(/C(=N/O)c2cc(OC)c(OC)c(OC)c2)c(OC)c1N	0 (no)
Cn1cc(C=O)c2ccccc21	0 (no)
Cc1oc2nc[nH]c(=O)c2c1C(=O)/C=C/c1ccc(Cl)cc1	1 (yes)
COc1ccc(Cl)cc1NC(N)=S	0 (no)
Nc1ccc(S(=O)(=O)c2ccc(Cl)cc2)cc1	0 (no)
COc1cc(C2C=C(C)N=C3SC=CN32)cc(OC)c1OC (configuration not stated)	0 (no)
COc1ccc(C(=O)c2cc(OC)c(OC)c(OC)c2)cc1/C=C/C(=O)c1ccc2c(c1)OCO2	0 (no)
COc1ccc(Cn2cc(COc3cc(/C=C/C(=O)c4cc(OC)c(OC)c(OC)c4)ccc3OC)nn2)cc1	0 (no)
COc1ccc(Cn2c(SC)nc(=O)n(Cc3ccc(Cl)cc3)c2=O)cc1	0 (no)
CC/C=C\C/C=C\C[C@H]1C/C=C2/C(=O)C=C[C@H]2C/C=C\CCC(=O)O1	1 (yes)
O=c1c2cccc3c(Nc4ccc(F)cc4)ccc(c32)c2nc3ccccc3n12	0 (no)
COc1cc(OC)c(C(=O)/C=C/c2ccc(C#N)cc2)c(OC)c1	1 (yes)
CC(C)(C)c1ccc(S(=O)(=O)Oc2ccc3c4c(c(=O)oc3c2)CCCCC4)cc1	0 (no)
COc1cc(-c2n[nH]nc2-c2ccc3c(c2)OCCO3)cc(OC)c1OC	1 (yes)
O=[N+]([O-])c1ccc(S(=O)(=O)N2CCN(c3ccnc4cc(Cl)ccc34)CC2)c([N+](=O)[O-])c1	0 (no)
CC(Br)C(O)c1cc2c(cc1Br)OCO2 (configuration not stated)	0 (no)
CC(C)CCN(CCCNc1c2c(nc3ccccc13)CCCC2)CCC(C)C	0 (no)
N#CC1=C(N)OC2=C(C(=O)CCC2)C1c1ccco1 (configuration not stated)	0 (no)
O=C1CCCCN1CCCCC#Cc1ccccc1C#Cc1ccc([N+](=O)[O-])cc1	0 (no)
COc1ccc(OC)c(NC(=O)c2cc(S(=O)(=O)N3CCc4ccccc43)ccc2OC)c1	0 (no)
CCN(Cc1ccc(CN(CC)C(=O)C(Cl)(Cl)Cl)cc1)C(=O)C(Cl)(Cl)Cl	0 (no)
O=C(CNc1ccc(Cl)cc1)Nc1ccc(-c2nc3ccccc3s2)cc1	0 (no)
COc1cc(Cn2c(SCC(=O)Nc3ccc(Cl)cc3)nc3ccccc3c2=O)cc(OC)c1OC	0 (no)
O=C(CNC1CCCCC1)Nc1ccc(-c2nc3ccccc3s2)cc1	0 (no)
CCNC(=O)C1CCCN1C(=O)C(CCCN=C(N)N)NC(=O)C(CC(C)C)NC(=O)C(CC(C)C)NC(=O)C(Cc1ccc(O)cc1)NC(=O)C(CO)NC(=O)C(Cc1c[nH]c2ccccc12)NC(=O)C(Cc1cnc[nH]1)NC(=O)C1CCC(=O)N1 (configuration not stated)	0 (no)
CCCCCC(=O)OCc1ccccc1	0 (no)
COc1cc2nc(Cl)nc(NCCO)c2cc1OC	0 (no)
O=C(CSc1nc(-c2ccc(Cl)cc2)cn1-c1ccc(Cl)cc1)c1ccc(Br)cc1	0 (no)
CCn1c(=O)c2c(=O)c3c4c(oc3oc2c2ccccc21)C(=O)c1ccccc1C4=O	0 (no)
CCC1CCc2nc3sc(C(=O)Nc4cccc(C)c4)c(N)c3cc2C1 (configuration not stated)	0 (no)
CCSc1nnc(NC(=O)Cc2ccc(Cl)cc2)s1	0 (no)
Cc1ccc2nc(SCn3nnc4ccccc4c3=O)[nH]c2c1	0 (no)
O=c1oc2cc(OS(=O)(=O)c3ccccc3)c(Cl)cc2c2c1CCCCCC2	0 (no)

Where do these numbers come from? They come from PubChem BioAssay (NCI).
